system: Mycobacterium tuberculosis; test: Cornell - Phenotypic assay to identify agents that inhibit growth of Mycobacterium tuberculosis; type: functional; parameters: scale not given: direction of the effect not stated beside the values; conditions: 10 mM as filed; unlikely as a test dose
Among all 53,000 compounds or so, about 900 (1.7%) showed an effect of 50% or more. The entries come from a sample that favours strong results as a whole.
// assign 1 if Percent Effect falls strictly below 20%, else 0 (ties count as 0)

Here's what some known entries look like.
CCc1ccc(-c2cn3c(C(=O)NCC(C)C(=O)NC)csc3n2)cc1 (stereo not drawn)    1
COc1ccc(-c2nc(CN3CC(n4cccn4)C3)no2)cc1    1
CCc1cc(C(C)Nc2nc(-c3cccnc3)nc3c2CNC3)on1 (stereo not drawn)    1

State whether 20% exceeds Percent Effect recorded for CC(C)N(C)Cc1n[nH]c2c1CCN(C(=O)c1ccc[nH]1)C2.O=C(O)C(F)(F)F .
1

----------
system: Mycobacterium tuberculosis; assay: Cornell - Phenotypic assay to identify agents that inhibit growth of Mycobacterium tuberculosis; format: functional; design: scale not given: direction of the effect not stated beside the values; conditions: 10 mM as filed; unlikely as a test dose
The campaign covered roughly 53,000 compounds. About 900 (1.7%) showed an effect of 50% or more. The list comes from a sample in which strong results are over-represented; it also holds close analogues and randomly drawn compounds.
Quick rule for you: Percent Effect at 30% or higher means Fulfilled, lower means Not fulfilled.

Here's what some known entries look like.
N#Cc1ccc(N2CCC(OCCc3ccccc3)CC2)nc1    Fulfilled
Cc1cc(-c2ccnn2C)nc(C2CCCN(S(C)(=O)=O)C2)n1 (stereo unspecified)    Fulfilled

Reported Percent Effect at or above 30%? Cc1cccc(OC2CCN(c3ccc(C#N)cn3)CC2)n1
Not fulfilled

Can you handle CCc1c(C)nc(-n2nc(C3CC3)cc2NC(C)=O)[nH]c1=O next?
Not fulfilled

Can you handle Cc1cc(-c2ccnn2C)nc(C2CCN(S(C)(=O)=O)CC2)n1 next?
Fulfilled

----------
tested on: Mycobacterium tuberculosis; assay: Cornell - Phenotypic assay to identify agents that inhibit growth of Mycobacterium tuberculosis; assay type: functional; parameters: scale not given: direction of the effect not stated beside the values; settings: 10 mM as filed; unlikely as a test dose
Screen size: about 53,000 compounds; about 900 (1.7%) showed an effect of 50% or more. This excerpt belongs to a sample that is enriched for strong results.
readout: Percent Effect (%)
Answers are plain numbers, in %.

COC(=O)C(NC(=O)COC1CCCC1)c1cc(F)ccc1F (configuration not stated)    63.8
Cc1nn(C)c(N(C)C)c1CNCC(O)c1ccccc1 (configuration not stated)    -2.094
COC(=O)C(c1cc(F)ccc1F)N(C)C(=O)c1ccccn1 (configuration not stated)    0.1474
COC(=O)C(NC(=O)c1ccco1)c1cc(F)ccc1F (configuration not stated)    104.5
CNC(=O)N1CCc2nc(C(=O)NCc3cccc(OC)c3)sc2CC1    -3.356

Would you mind giving Percent Effect for every compound in the list below?
1. Cc1noc(C)c1S(=O)(=O)NCC(O)c1ccc2c(c1)CCO2 (configuration not stated)
2. CN(CCc1nccs1)C(=O)CC1(O)CCCCC1

1: -26.48; 2: 19.59

Would you mind giving Percent Effect for every compound in the list below?
1. CC(C)c1nn(C)c(N(C)C)c1CNCC(O)COc1ccccc1 (configuration not stated)
2. CN(Cc1nnc(-c2cccs2)o1)C(C(N)=O)c1cccc(F)c1 (configuration not stated)
3. Cn1cccc1C(=O)N1CC2(CCN(C(=O)c3cccnc3)C2)C1.O=C(O)C(F)(F)F
4. COCc1nnc(C(=O)N2CCC(N3CCCCC3)CC2)o1

1. 51.29
2. 15.31
3. -3.792
4. -29.51

Request: Percent Effect, test system Mycobacterium tuberculosis, entry NC(=O)C(NC(=O)COC1CCCC1)c1ccccc1 (configuration not stated)
21.89

----------
tested on: Mycobacterium tuberculosis; experiment: Cornell - Phenotypic assay to identify agents that inhibit growth of Mycobacterium tuberculosis; format: functional; set-up: scale not given: direction of the effect not stated beside the values; settings: 10 mM as filed; unlikely as a test dose
Hit rate of the full screen: of about 53,000 compounds, about 900 (1.7%) showed an effect of 50% or more. Shown is part of a subset that was picked to be rich in strong results.
// assign condition met if Percent Effect falls strictly below 50%, else condition not met (ties count as condition not met)

COCCn1ccc2c(C(=O)O)cccc21    condition met

Now take the following molecule into account.
State whether 50% exceeds Percent Effect recorded for COCCn1ccc2c(NC(=O)c3n[nH]c4c3CCC4)cccc21 .
condition not met

----------
tested on: Mycobacterium tuberculosis; assay: Cornell - Phenotypic assay to identify agents that inhibit growth of Mycobacterium tuberculosis; type: functional; design: scale not given: direction of the effect not stated beside the values; conditions: 10 mM as filed; unlikely as a test dose
The campaign covered roughly 53,000 compounds. About 900 (1.7%) showed an effect of 50% or more. This excerpt belongs to a sample that is enriched for strong results.
// assign criterion met if Percent Effect falls strictly below 30%, else criterion not met (ties count as criterion not met)

Here's what some known entries look like.
c1cc(-c2n[nH]cc2-c2ccnc(N3CCCC3)n2)ccn1    criterion met
O=C(NCC1CCOC1)c1csc(-c2ccc(Cl)cc2)n1 (stereo unspecified)    criterion met

State whether 30% exceeds Percent Effect recorded for Cc1ccc(-n2nnc(C(=O)NCC3CCCCC3)n2)cc1 .
criterion not met

Can you handle CN1CCOC(C)(C(=O)N2CCN(C3CCCC3)CC2)C1 (stereo unspecified) next?
criterion met

Can you handle O=C(NCC1CC1)c1nnc2ccc(Cl)cc2n1 next?
criterion not met

----------
So I've got a bunch of compounds here, and I need their Percent Effect values.
system: Mycobacterium tuberculosis; experiment: Cornell - Phenotypic assay to identify agents that inhibit growth of Mycobacterium tuberculosis; format: functional; set-up: scale not given: direction of the effect not stated beside the values; conditions: 10 mM as filed; unlikely as a test dose
The campaign covered roughly 53,000 compounds. About 900 (1.7%) showed an effect of 50% or more. The sample holds strong results, similar compounds and a random draw of the others, so the mix is not that of the screen.
Answers are plain numbers, in %.

Some compounds with known Percent Effect results, for comparison:
Cn1cc(CN2CC[C@H](O)[C@@H](n3ccc(=O)[nH]c3=O)CC2)cn1    -40.44
O[C@@H]1C[C@H]2CN(Cc3ccccc3)[C@H](Cc3ccccc3)CN2C1    7.945
CC1CCN(c2ccc(=O)n(CC(=O)NCCc3ccccc3)n2)CC1    45.57
COCCn1cc(NC(=O)NC(C)Cc2c(F)cccc2F)cn1 (stereo unspecified)    -32.72
COCCNc1cc(-c2ccccc2C(N)=O)c2cc[nH]c2n1    26.26
CC(C)CCCNC(=O)Nc1ccc(F)c(C(N)=O)c1    -8.199
CC(C)n1ccc(CN2CCN(c3cc(NC4CC4)nc(N)n3)CC2)c1    13.37
CCc1c(C(=O)Nc2ccc(F)c(C(=O)NC)c2)cnn1CC(C)C    23.68

Would you mind giving Percent Effect for every compound in the list below?
1. CCOCCC(=O)Nc1cccc(Oc2ccccn2)c1
2. CNC(=O)c1cc(NC(=O)NC(C)CCc2cccn2C)ccc1F (stereo unspecified)
3. O[C@@H]1C[C@H]2CN(Cc3ccsc3)[C@@H](Cc3ccccc3)CN2C1

1. -2.089
2. -1.57
3. 57.45

----------
So I've got a bunch of compounds here, and I need their Percent Effect values.
system: Mycobacterium tuberculosis; experiment: Cornell - Phenotypic assay to identify agents that inhibit growth of Mycobacterium tuberculosis; type: functional; design: scale not given: direction of the effect not stated beside the values; conditions: 10 mM as filed; unlikely as a test dose
Among all 53,000 compounds or so, about 900 (1.7%) showed an effect of 50% or more. This excerpt belongs to a sample that is enriched for strong results.
Numbers only, in %.

Some compounds with known Percent Effect results, for comparison:
CC(=O)N1CCC(c2nccnc2-c2ccc(C(=O)O)cc2)CC1    -19.35
CCC1CCCCN1C(=O)Cn1nc(-c2cc(C)oc2C)cc(N)c1=O (stereo unspecified)    52.47
CCc1ccc(-c2cc(C(F)(F)F)nc(N3CCC(N)CC3)n2)cc1    105.7
CCC1CCCN(S(=O)(=O)c2cnc3onc(C)c3c2)C1 (stereo unspecified)    54.72
COCCN1CCN(S(=O)(=O)c2ccccc2)Cc2cccnc21.O=C(O)C(F)(F)F    12.13
Cc1noc2ncc(S(=O)(=O)N3CCCC(C)(C)CC3)cc12    49.9
Cc1occc1C(=O)N1CCC2(CC1)CN(c1ccccn1)CCO2.O=C(O)C(F)(F)F    15.62
CN1[C@@H](C(=O)NCC2CC2)C[C@@H]2CN(Cc3ccco3)C[C@@H]21    11.69
Cc1ccc(-c2cc(C(F)(F)F)nc(N3CCOCC3)n2)s1    4.079
CCn1ncc(-c2cc(C(F)(F)F)nc(N3CCC(N)CC3)n2)c1C    50.19

Would you kindly look at the next entry?
Given the compound Cc1cc(C(F)(F)F)nc(N2CCN3CCCC3C2)n1 (stereo unspecified) , what is its reported Percent Effect?
-50.74
